pIC50 values for High affinity nerve growth factor receptor (Homo sapiens, UniProt P04629), compiled from several publications.
pIC50: −log10 of the molar value.

For the record C[C@@H]1CCOc2ccc(F)cc2[C@H]2CCCN2c2ccc3ncc(C#N)c(c3n2)N1 , what value of pIC50 is listed for High affinity nerve growth factor receptor (Homo sapiens, UniProt P04629)?
> 7.30

For the record CCn1cc(Nc2ccc(Cc3c[nH]c4ncnc(OCCOC)c34)c(F)n2)cn1 , what value of pIC50 is listed for High affinity nerve growth factor receptor (Homo sapiens, UniProt P04629)?
< 6.00

For the record COc1ccc(COc2cc(F)c(Cn3cnc4cc(N5CCN(C)CC5)ccc43)cc2OC)cn1 , what value of pIC50 is listed for High affinity nerve growth factor receptor (Homo sapiens, UniProt P04629)?
6.07

For the record COCCN1C[C@@H](NC(=O)Nc2c(C)c(C[C@@H](C)O)nn2-c2ccccc2)[C@H](c2ccc(F)c(F)c2)C1 , what value of pIC50 is listed for High affinity nerve growth factor receptor (Homo sapiens, UniProt P04629)?
> 7.00

For the record Cc1nn(-c2ccccc2)c(NC(=O)N[C@@H]2CN(c3cn[nH]c3)C[C@H]2c2cc(F)cc(F)c2)c1C , what value of pIC50 is listed for High affinity nerve growth factor receptor (Homo sapiens, UniProt P04629)?
> 7.00

For the record CN1CCC(N2Cc3cc4nc(-c5c(NC[C@@H](O)COc6c(F)ccc(Cl)c6F)cc[nH]c5=O)[nH]c4cc3C2=O)CC1 , what value of pIC50 is listed for High affinity nerve growth factor receptor (Homo sapiens, UniProt P04629)?
> 6.30

For the record CC(=O)N1CCN(c2ccc(NC(=O)c3coc4c3C(=O)N(CCOCc3ccccc3)CC4)c(OCCOCc3ccccc3)n2)CC1 , what value of pIC50 is listed for High affinity nerve growth factor receptor (Homo sapiens, UniProt P04629)?
5.88

====

IC50 values for High affinity nerve growth factor receptor (Homo sapiens, UniProt P04629), compiled from several publications.

For the record CC(C)(O)COc1cc2nccc(Oc3ccc(NC(=O)c4cccn(-c5ccc(F)cc5)c4=O)c(Cl)c3)c2c2c1OCCO2 , what value of IC50 is listed for High affinity nerve growth factor receptor (Homo sapiens, UniProt P04629)?
< 50 nM

For the record COCCN1C[C@@H](NC(=O)Nc2c(C(N)=O)c(C)nn2-c2ccccc2)[C@H](c2ccc(F)c(F)c2)C1 , what value of IC50 is listed for High affinity nerve growth factor receptor (Homo sapiens, UniProt P04629)?
< 100 nM

For the record COc1ncc(F)cc1CNc1ccc(Cc2c[nH]c3ncncc23)c(F)n1 , what value of IC50 is listed for High affinity nerve growth factor receptor (Homo sapiens, UniProt P04629)?
≤ 10000 nM

For the record Cc1cnc2[nH]cc(Cc3ccc(Nc4ccc(C)nc4)nc3F)c2c1 , what value of IC50 is listed for High affinity nerve growth factor receptor (Homo sapiens, UniProt P04629)?
< 1000 nM

For the record CCNC(=O)c1nn(-c2ccccc2)c(NC(=O)N[C@@H]2CN(CCOC)C[C@H]2c2ccc(F)c(F)c2)c1C , what value of IC50 is listed for High affinity nerve growth factor receptor (Homo sapiens, UniProt P04629)?
< 100 nM

For the record COCCN1C[C@@H](NC(=O)Nc2cc(-c3cnn(C)c3)nn2-c2ccccc2)[C@H](c2ccc(F)c(F)c2)C1 , what value of IC50 is listed for High affinity nerve growth factor receptor (Homo sapiens, UniProt P04629)?
< 100 nM

For the record CC(=O)N1CCN(c2ccc(NC(=O)c3coc4c3C(=O)CC(C)(C)C4)nc2)CC1 , what value of IC50 is listed for High affinity nerve growth factor receptor (Homo sapiens, UniProt P04629)?
46.7 nM

For the record COCCN1C[C@@H](NC(=O)Nc2c(Br)c(COC3CCN(S(C)(=O)=O)CC3)nn2-c2ccccc2)[C@H](c2ccc(F)c(F)c2)C1 , what value of IC50 is listed for High affinity nerve growth factor receptor (Homo sapiens, UniProt P04629)?
< 100 nM

For the record CC(Oc1cc(-c2ccc(C(N)=O)c(N3CCN(c4ccncc4)CC3)c2)cc2[nH]nc(N)c12)C(F)(F)F (stereo not drawn) , what value of IC50 is listed for High affinity nerve growth factor receptor (Homo sapiens, UniProt P04629)?
539 nM

For the record COCC(N1C[C@@H](NC(=O)Nc2c3c(nn2-c2ccccc2)CCC3)[C@H](c2ccc(F)c(F)c2)C1)C(C)(C)O (stereo partly drawn) , what value of IC50 is listed for High affinity nerve growth factor receptor (Homo sapiens, UniProt P04629)?
100 to 1000 nM

For the record CC(=O)N1CCN(c2ccc(NC(=O)c3coc4c3C(=O)NCC4)c(O[C@H]3CCOC3)n2)CC1 , what value of IC50 is listed for High affinity nerve growth factor receptor (Homo sapiens, UniProt P04629)?
23.5 nM

For the record COCCN1C[C@@H](NC(=O)Nc2c(-c3ccccc3)c(C)nn2C)[C@H](c2ccccc2)C1 (relative stereo) , what value of IC50 is listed for High affinity nerve growth factor receptor (Homo sapiens, UniProt P04629)?
100 to 1000 nM

For the record CCOc1nn(-c2ccccc2)c(NC(=O)N[C@H]2CN(c3ccnn3C)C[C@@H]2c2cc(F)cc(F)c2)c1C , what value of IC50 is listed for High affinity nerve growth factor receptor (Homo sapiens, UniProt P04629)?
< 100 nM

For the record CCCCOC(=O)c1c[nH]c2c(=O)[nH]c3ccc(S(=O)(=O)NC4CCNCC4)cc3c12 , what value of IC50 is listed for High affinity nerve growth factor receptor (Homo sapiens, UniProt P04629)?
10000 to 100000 nM

For the record COCCN1C[C@@H](NC(=O)Nc2c(C)c(-c3cnn(C)c3)nn2-c2ccccc2)[C@H](c2ccc(C)cc2)C1 , what value of IC50 is listed for High affinity nerve growth factor receptor (Homo sapiens, UniProt P04629)?
< 100 nM
